Measured logP values are reported for all entries that follow.
# assay: method code SF-AS/HPLC, from DOI: 10.1039/a908863f
Number only, please.

{"columns": ["chemical_structure", "logP"],
 "data": [
  ["C=CC(=O)OCC(C)(C)COC(=O)C=C", 2.5],
  ["C=CC(=O)OCCOCCOCCOC(=O)C=C", 0.65],
  ["C=CC(=O)OCCCOC(=O)C=C", 0.87],
  ["C=CC(=O)OCC(COC(=O)C=C)(COC(=O)C=C)COC(=O)C=C", 2.23]
]}

Now take the following molecule into account.
Input: What value of logP has been reported for the following molecule? `C=CC(=O)OCCOCCOC(=O)C=C`
Output: 0.79
